This collection of values is drawn from the Human Domainome abundance scans (Beltran et al. 2025).

Form field: abundance fitness (one value per entry).
B1: SAM and SH3 domain-containing protein 1, residues 630 to 700; numbered along this chain, O94885 (parent)
chain: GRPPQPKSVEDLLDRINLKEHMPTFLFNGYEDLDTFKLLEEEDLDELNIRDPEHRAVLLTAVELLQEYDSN

variants of: B1; experiment: abundance fitness (aPCA) (normalised: wild type 0, dead -1); higher = more abundant; growth selection in yeast, the domain comes from the species named; conditions: Homo sapiens
The answer should be a number; do not append a unit.

Worked examples, 10 variants total:
GRPPQPKSVEDLLDRINLKEHMPTFLFNGYEDLDTFKLLEEEPLDELNIRDPEHRAVLLTAVELLQEYDSN [D43P]
-0.939
GRPPQPKSVEDLLDRINLKEHMPTFLFNGFEDLDTFKLLEEEDLDELNIRDPEHRAVLLTAVELLQEYDSN [Y30F]
0.058
GRPPQPKSVEDLLDRINLKEHMPTFLFNGYEDLDTFKLLEEEDLDELNIRDPEHRAVLLTSVELLQEYDSN [A61S]
-0.225
GRPPQPKSVEDLLDRINLKEHMPTFLFNQYEDLDTFKLLEEEDLDELNIRDPEHRAVLLTAVELLQEYDSN [G29Q]
-0.959
GRPPQPKSVEDLLDRINLKEHMPTFLFNGYEDLDTFKLLEEMDLDELNIRDPEHRAVLLTAVELLQEYDSN [E42M]
-0.476
GRPPQPKSVEDLLDRINLREHMPTFLFNGYEDLDTFKLLEEEDLDELNIRDPEHRAVLLTAVELLQEYDSN [K19R]
-0.032
GRPWQPKSVEDLLDRINLKEHMPTFLFNGYEDLDTFKLLEEEDLDELNIRDPEHRAVLLTAVELLQEYDSN [P4W]
-0.008
GRPPQPKSVEDLLDRINLKEHMPTFLFNGYEDLDTFKLLEEEDLDELGIRDPEHRAVLLTAVELLQEYDSN [N48G]
0.197
GRPPQPKSVEDLLDRINLKEHMPTFLFNGYECLDTFKLLEEEDLDELNIRDPEHRAVLLTAVELLQEYDSN [D32C]
-0.292
GRVPQPKSVEDLLDRINLKEHMPTFLFNGYEDLDTFKLLEEEDLDELNIRDPEHRAVLLTAVELLQEYDSN [P3V]
0.035

Can you look up the measured abundance fitness of GRPPQPKSVEDLLDRINLKEHMPTFLFNGYEDLDTFKLLEEEDLDELNIRHPEHRAVLLTAVELLQEYDSN [D51H] for me?
-0.447

Can you look up the measured abundance fitness of GRPPQPKSVEDLLDRINLKECMPTFLFNGYEDLDTFKLLEEEDLDELNIRDPEHRAVLLTAVELLQEYDSN [H21C] for me?
-0.536

Can you look up the measured abundance fitness of GRPPQPKSVEDLLDRICLKEHMPTFLFNGYEDLDTFKLLEEEDLDELNIRDPEHRAVLLTAVELLQEYDSN [N17C] for me?
-0.486
